test: Intrinsic clearance in mouse liver microsomes up to 40 mins in presence of NADPH; assay type: ADME, microsome; settings: read-out: CLH
microsomal CLint strictly under 200 µL/min/mg means yes (1); at 200 µL/min/mg or over means no (0).

// known answers, use as guide
compound=CN1C(=O)[C@@H]2CN(S(=O)(=O)c3ccc4nc[nH]c4c3)C[C@@H]2c2cnccc21 assigned_label="yes (1)"
compound=CN1C(=O)[C@H]2CN(S(=O)(=O)c3ccc4c(c3)OCO4)C[C@H]2c2cnccc21 assigned_label="no (0)"
compound=CN1C(=O)[C@@H]2CN(S(=O)(=O)c3ccc4c(c3)OCO4)C[C@@H]2c2cnccc21 assigned_label="yes (1)"
compound=CN1C(=O)[C@@H]2CN(S(=O)(=O)c3ccc4c(c3)OCC4)C[C@@H]2c2cnccc21 assigned_label="yes (1)"
compound="CN1C(=O)[C@@H]2CN(S(=O)(=O)c3ccc4c(c3)OCO4)C[C@@H]2c2cc(C#N)ccc21 (racemic)" assigned_label="no (0)"

Please state whether microsomal CLint is below 200 µL/min/mg for CN1C(=O)[C@@H]2CN(S(=O)(=O)c3ccc4c(c3)OCO4)C[C@@H]2c2cccnc21 (racemic)
no (0)

Please state whether microsomal CLint is below 200 µL/min/mg for `CN1C(=O)[C@@H]2CN(S(=O)(=O)c3ccc4scnc4c3)C[C@@H]2c2cnccc21`
yes (1)

Please state whether microsomal CLint is below 200 µL/min/mg for `CN1C(=O)[C@@H]2CN(S(=O)(=O)c3ccc4ocnc4c3)C[C@@H]2c2cnccc21`
yes (1)

====

tested on: human BCRP; assay: Efflux ratio of passive apparent permeability in MDCK cells harboring human BCRP; format: ADME, cell-based, Canis lupus familiaris; conditions: dog
Known efflux ratio of a selection of molecules
Just the number.

item_smiles=CN1C(=O)[C@@H]2CN(S(=O)(=O)c3ccc4c(c3)OCO4)C[C@@H]2c2cc(O)ccc21 system_tested="human BCRP" value=3.1

Name the recorded efflux ratio of the item `CN1C(=O)[C@@H]2CN(S(=O)(=O)c3ccc4c(c3)OCC4)C[C@@H]2c2cnccc21` in your answer.
0.7

Name the recorded efflux ratio of the item `CN1C(=O)[C@H]2CN(S(=O)(=O)c3ccc4c(c3)OCO4)C[C@H]2c2cnccc21` in your answer.
0.9

Name the recorded efflux ratio of the item `O=S(=O)(c1ccc2c(c1)OCO2)N1C[C@@H]2c3ccccc3-n3ccnc3[C@@H]2C1` in your answer.
1.3

====

target: Glycine receptor alpha-3/beta (Homo sapiens) (UniProt O75311+P48167); experiment: Positive allosteric modulation of human glycine alpha3beta receptor expressed in HEK293T cells assessed as compound concentration required to induce up to 3-fold leftward shift in glycine-induced increase in chloride ion flux after 4 mins by Schild plot analysis; type: cell-based
Known MEC of a selection of compounds
# value in µM; strip the unit string

Below: 3 compounds and their reported MEC.
item_smiles=O=S(=O)(c1ccc2c(c1)OCO2)N1C[C@@H]2c3ccccc3-n3ccnc3[C@@H]2C1 value=3.1
item_smiles=CN1C(=O)[C@@H]2CN(S(=O)(=O)c3ccc(F)c(Cl)c3)C[C@@H]2c2cnccc21 value=3.1
item_smiles=CN1C(=O)[C@@H]2CN(S(=O)(=O)c3ccc4occc4c3)C[C@@H]2c2cnccc21 value=0.2

Name the recorded MEC of the item `CN1C(=O)[C@@H]2CN(S(=O)(=O)c3ccc4nc[nH]c4c3)C[C@@H]2c2cnccc21` in your answer.
3.1

Name the recorded MEC of the item `O=S(=O)(c1ccc2c(c1)OCO2)N1C[C@@H]2c3nccn3-c3ccccc3[C@@H]2C1` in your answer.
6.3

====

assay: Oral bioavailability in mouse at 10 mg/kg; type: ADME, organism-based; details: in vivo
VALUE_TYPE: bioavailability
Please answer using the number first and the unit second.

Name the recorded bioavailability of the item `CN1C(=O)[C@@H]2CN(S(=O)(=O)c3ccc4occc4c3)C[C@@H]2c2cnccc21` in your answer.
100%

====

molecular target: Glycine receptor subunit alpha-3 (Homo sapiens); assay: Positive allosteric modulation of human glycine alpha3 receptor expressed in HEK293T cells assessed as potentiation of glycine-induced increase in chloride ion flux after 4 mins by membrane potential blue dye based FLIPR assay
Sequence (O75311 whole entry): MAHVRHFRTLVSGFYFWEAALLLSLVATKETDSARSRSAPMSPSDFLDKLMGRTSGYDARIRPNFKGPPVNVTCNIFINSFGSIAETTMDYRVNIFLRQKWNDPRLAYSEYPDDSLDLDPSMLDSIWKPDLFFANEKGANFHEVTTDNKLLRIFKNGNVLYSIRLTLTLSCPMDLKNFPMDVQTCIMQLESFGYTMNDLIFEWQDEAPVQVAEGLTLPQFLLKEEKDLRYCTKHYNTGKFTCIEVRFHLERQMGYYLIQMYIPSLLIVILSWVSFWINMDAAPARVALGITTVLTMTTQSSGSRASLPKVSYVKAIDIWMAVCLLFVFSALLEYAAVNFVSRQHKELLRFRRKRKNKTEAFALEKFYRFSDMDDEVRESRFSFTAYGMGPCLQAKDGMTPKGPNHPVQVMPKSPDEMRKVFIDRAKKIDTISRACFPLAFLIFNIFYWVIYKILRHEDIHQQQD
VALUE_TYPE: pEC50
Just the number, please; pEC50 means minus log10 of the concentration in mol/L.

Recall the reported pEC50 of `C[C@H]1[C@H]2C(=O)N(C)c3ccncc3[C@H]2CN1S(=O)(=O)c1ccc2c(c1)OCO2` when tested on Glycine receptor subunit alpha-3 (Homo sapiens).
7.30

Recall the reported pEC50 of `CN1C(=O)[C@@H]2CN(S(=O)(=O)c3ccc4occc4c3)C[C@@H]2c2cnccc21` when tested on Glycine receptor subunit alpha-3 (Homo sapiens).
6.35

====

assay: Passive apparent permeability in MDCK cells; type: ADME, cell-based, Canis lupus familiaris; conditions: dog
Known Papp of a selection of compounds
# value in ×10⁻⁶ cm/s; strip the unit string

item_smiles=CN1C(=O)[C@@H]2CN(S(=O)(=O)c3ccc4occc4c3)C[C@@H]2c2cnccc21 value_type=Papp value=69

Name the recorded Papp of the item `CN1C(=O)[C@@H]2CN(S(=O)(=O)c3ccc4c(c3)OCO4)C[C@@H]2c2ccccc21` in your answer.
46

Name the recorded Papp of the item `CN1C(=O)[C@@H]2CN(S(=O)(=O)c3ccn4ccnc4c3)C[C@@H]2c2cnccc21` in your answer.
16

Name the recorded Papp of the item `CN1C(=O)[C@@H]2CN(S(=O)(=O)c3ccc4c(c3)OCO4)C[C@@H]2c2cc(O)ccc21` in your answer.
18

Name the recorded Papp of the item `CN1C(=O)[C@@H]2CN(S(=O)(=O)c3ccc4c(c3)OCO4)C[C@@H]2c2cnccc21` in your answer.
52

Name the recorded Papp of the item `O=S(=O)(c1ccc2c(c1)OCO2)N1C[C@@H]2c3ccccc3-n3ccnc3[C@@H]2C1` in your answer.
58

Name the recorded Papp of the item `CN1C(=O)[C@@H]2CN(S(=O)(=O)c3ccc4c(c3)OCC4)C[C@@H]2c2cnccc21` in your answer.
28

Name the recorded Papp of the item `CN1C(=O)[C@@H]2CN(S(=O)(=O)c3ccc4c(c3)CCO4)C[C@@H]2c2cnccc21` in your answer.
50

====

tested on: human BCRP; test: Efflux ratio of passive apparent permeability in MDCK cells harboring human BCRP; type: ADME, cell-based, Canis lupus familiaris; conditions: dog
VALUE_TYPE: efflux ratio
Just the number.

Below: 5 compounds and their reported efflux ratio.
item_smiles=CN1C(=O)[C@@H]2CN(S(=O)(=O)c3ccc4scnc4c3)C[C@@H]2c2cnccc21 value_type="efflux ratio" value=1.4
item_smiles=CN1C(=O)[C@@H]2CN(S(=O)(=O)c3ccc4ocnc4c3)C[C@@H]2c2cnccc21 value_type="efflux ratio" value=1.1
item_smiles=CN1C(=O)[C@@H]2CN(S(=O)(=O)c3ccc4c(c3)OCO4)C[C@@H]2c2ncccc21 value_type="efflux ratio" value=1
item_smiles=CN1C(=O)[C@@H]2CN(S(=O)(=O)c3ccc4c(c3)OCO4)C[C@@H]2c2cnccc21 value_type="efflux ratio" value=0.9
item_smiles=CN1C(=O)[C@@H]2CN(S(=O)(=O)c3ccc4c(c3)CCO4)C[C@@H]2c2cnccc21 value_type="efflux ratio" value=1.2

Recall the reported efflux ratio of `CN1C(=O)[C@@H]2CN(S(=O)(=O)c3ccc(F)c(Cl)c3)C[C@@H]2c2cnccc21` when tested on human BCRP.
1.1

Recall the reported efflux ratio of `CN1C(=O)[C@@H]2CN(S(=O)(=O)c3ccn4ccnc4c3)C[C@@H]2c2cnccc21` when tested on human BCRP.
8.3

Recall the reported efflux ratio of `CN1C(=O)[C@@H]2CN(S(=O)(=O)c3ccc4occc4c3)C[C@@H]2c2cnccc21` when tested on human BCRP.
1.1

====

experiment: Intrinsic clearance in mouse liver microsomes up to 40 mins in presence of NADPH; type: ADME, microsome; conditions: read-out: CLH
Known microsomal CLint of a selection of compounds
# value in µL/min/mg; strip the unit string

compound=O=S(=O)(c1ccc2c(c1)OCO2)N1C[C@@H]2c3ccccc3-n3ccnc3[C@@H]2C1 value_type="microsomal CLint" output_unit=µL/min/mg value=901
compound=CN1C(=O)[C@@H]2CN(S(=O)(=O)c3ccc4c(c3)CCO4)C[C@@H]2c2cnccc21 value_type="microsomal CLint" output_unit=µL/min/mg value=225

Next, consider the following compound.
Name the recorded microsomal CLint of the item CN1C(=O)[C@@H]2CN(S(=O)(=O)c3ccc4c(c3)OCO4)C[C@@H]2c2ccncc21 (racemic) in your answer.
225

====

Known MEC of a selection of compounds
biological target: Glycine receptor alpha-3/beta (Homo sapiens) (UniProt O75311+P48167); assay: Positive allosteric modulation of human glycine alpha3beta receptor expressed in HEK293T cells assessed as compound concentration required to induce up to 3-fold leftward shift in glycine-induced increase in chloride ion flux after 4 mins by Schild plot analysis; assay type: cell-based

Below: 2 compounds and their reported MEC.
compound=C[C@@H]1[C@H]2c3cnccc3N(C)C(=O)[C@H]2CN1S(=O)(=O)c1ccc2c(c1)OCO2 value_type=MEC value="> 25 µM"
compound="CN1C(=O)[C@@H]2CN(S(=O)(=O)c3ccc4c(c3)OCO4)C[C@]2(C)c2cnccc21 (racemic)" value_type=MEC value="> 25 µM"

Next, consider the following compound.
Name the recorded MEC of the item CN1C(=O)[C@]2(C)CN(S(=O)(=O)c3ccc4c(c3)OCO4)C[C@@H]2c2ccccc21 (single isomer, unassigned) in your answer.
> 25 µM
